Biological target: GST-Atrophin-1 Interacting Protein PDZ domain 1 (Rattus norvegicus (Rat)), O88382
Sequence (O88382 408-511): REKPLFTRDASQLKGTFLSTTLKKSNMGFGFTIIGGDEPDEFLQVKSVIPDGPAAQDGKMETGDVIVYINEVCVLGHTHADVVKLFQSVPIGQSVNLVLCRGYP
Experiment: G' assay; further: key of the grades not given here
READOUT: Classification
Show the value, then the unit it is measured in.

Exercise: Quick one: Classification of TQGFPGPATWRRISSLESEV (modifications not checked) [NMDA Glutamate Receptor 2C (cysteine-free)] ?
Solution: 5 A450 class

Exercise: Please report the recorded Classification for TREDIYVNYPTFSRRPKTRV (modifications not checked) [DNAM-1] .
Solution: 3 A450 class

Exercise: Using the record for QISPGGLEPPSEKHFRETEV (modifications not checked) [TAX] , report its Classification.
Solution: 5 A450 class

Exercise: Value lookup for Classification; key = LHNQASVPLEPRPLRRESEI (modifications not checked) [Kir2.1 (inwardly rect. K+ channel)]
Solution: 1 A450 class
